FYI, the data here is from PubChem BioAssay.

- Tested on: Human papillomavirus type 1a E7 protein (residues 1-88)
- protocol details: HPV1a E7 small-molecule binders, primary screen, biochemical, small-molecule microarray, residues 1-88, 635 nm (AID 1129)
- experimental conditions: small-molecule microarray binding, fluorescence 635 nm; higher = more signal
measured attribute: composite z-score
The answer should be written as a number, with no unit following it.

// below: answered compounds
[[record]]
compound = "O=C1O[C@H](c2ccccc2)[C@H](c2ccccc2)N2[C@H]1[C@@H](C(=O)O)[C@]1(C(=O)Nc3ccc(C#CCCO)cc31)[C@H]2c1ccc(OCCO)cc1"
reading = 1.22

[[record]]
compound = "Cc1ccc(C(C)CC(O)C2C=CC3C(=O)N(C)C(=O)C3N2Nc2ccccc2)o1 (configuration not stated)"
reading = 1.22

[[record]]
compound = "Cc1ccccc1C(O)C1C=CC2C(=O)N(c3ccccc3)C(=O)C2N1Nc1ccccc1 (configuration not stated)"
reading = 1.25

[[record]]
compound = "CCCc1cc2c(n1CCc1ccc(Cl)cc1)C(C)C1CN(C(=O)c3ccccc3)C(C)(C(=O)OC)C21 (configuration not stated)"
reading = 1.22

[[record]]
compound = "CCCC=C(CCC)[C@@H](NC(=O)c1ccc(C(F)(F)F)cc1)c1ccc(C(F)(F)F)cc1"
reading = 1.23


// query Report value only: composite z-score, Human papillomavirus type 1a E7 protein (residues 1-88), CC(C)=CCCC(C)=CC(O)C1C=CC2C(=O)NC(=O)C2N1Nc1ccccn1 (configuration not stated)
// result 1.08

// query Report value only: composite z-score, Human papillomavirus type 1a E7 protein (residues 1-88), `COCCOC(=O)N1C(=O)[C@@]2(c3cc(C#CCC(C(=O)OC)C(=O)OC)ccc31)[C@H](C(=O)Nc1nc3ccccc3s1)[C@H]1C(=O)O[C@H](c3ccccc3)[C@H](c3ccccc3)N1[C@@H]2c1ccc(O)cc1`
// result 1.21

----------
- target entity: Follistatin (Homo sapiens)
- protocol details: FST protein binding to printed compounds – biochemical, small-molecule microarray, 635/667 nm fluorescence, primary screen (AID 1132)
- experimental conditions: 635 nm fluorescence, higher = more signal
Classes are defined on composite z-score with ranges LOW = under 0.1, MEDIUM = from 0.1 up to 1, HIGH = 1 and over

[[record]]
molecule = "COc1ccc([Si](C)(C)[C@H]2[C@H](CC(=O)N3CCC[C@H]3CO)O[C@@]3(C(=O)N(Cc4ccc(N5CCCCC5=O)cc4)c4ccccc43)[C@@H]2C)cc1"
target_entity = "Follistatin (Homo sapiens)"
class_assignment = "HIGH"

[[record]]
molecule = "CC(C)(C)N1CC=CC23O[C@@H]4C=CCOC(=O)[C@@H]4[C@H]2C(=O)N(CCO)[C@@H]3C1=O (some centres not stated)"
target_entity = "Follistatin (Homo sapiens)"
class_assignment = "LOW"

[[record]]
molecule = "COCCOC(=O)N1C(=O)[C@@]2(c3cc(C#CCCO)ccc31)[C@H](C(N)=O)[C@H]1C(=O)O[C@H](c3ccccc3)[C@H](c3ccccc3)N1[C@@H]2c1ccccc1OCCO"
target_entity = "Follistatin (Homo sapiens)"
class_assignment = "HIGH"

[[record]]
molecule = "C[C@@H]1NC(=O)C([C@@H](C)OCc2ccccc2)NC(=O)[C@@]23C(=O)N[C@@H](Cc4ccccc4)C2[C@H](C)[C@@]2(C)O[C@H]2C3/C=C/C/C=C\\CNC1=O (some centres not stated)"
target_entity = "Follistatin (Homo sapiens)"
class_assignment = "LOW"

[[record]]
molecule = "O=C(N1CCOCC1)[C@@]1(Cc2ccccc2)COC(c2ccc(OCCCO)cc2)=N1"
target_entity = "Follistatin (Homo sapiens)"
class_assignment = "LOW"

[[record]]
molecule = "COC(=O)[C@@]1(Cc2ccc(OC)cc2)[C@H]2c3cc(C(=O)N4CCCC4)n(Cc4ccc(Cl)c(C(F)(F)F)c4)c3C[C@H]2CN1C(=O)c1ccccc1"
target_entity = "Follistatin (Homo sapiens)"
class_assignment = "HIGH"


// query Which bin should I file `COC(=O)[C@@]1(Cc2ccc(F)cc2)[C@H]2c3cc(C(=O)N(C)C)n(CCc4ccc(O)c(O)c4)c3C[C@H]2CN1C(=O)c1ccccc1` under?
// result LOW

// query Which bin should I file `O=C(NCc1ccccc1)[C@@H]1c2ccccc2C(=O)N(Cc2ccc(OC(F)(F)F)cc2)[C@H]1c1ccc(CO)cc1` under?
// result MEDIUM

// query Which bin should I file CC(C)(C)OC(=O)CC[C@]1(C(=O)NCC(O)CO)N=C(c2ccc(OCCCO)cc2)O[C@H]1c1ccccc1N=[N+]=[N-] (some centres not stated) under?
// result HIGH

// query Which bin should I file `CN(C)C(=O)[C@]1(Cc2ccccc2)N=C(c2ccc(OCCCO)cc2)O[C@@H]1c1ccccc1CN=[N+]=[N-]` under?
// result HIGH

// query Which bin should I file `C=C(COC)C(=O)CC[C@H](OC(=O)c1cccnc1)c1ccc(OCCO)cc1` under?
// result HIGH

// query Which bin should I file `Cc1ccc(S[C@]2(C(=O)NCCCN(C)C)CC(=O)N(C3Cc4ccccc4C3)[C@@H]2c2ccc(CO)cc2I)cc1` under?
// result MEDIUM

// query Which bin should I file `COc1ccc([Si](C)(C)[C@H]2[C@H](CC(=O)N3Cc4ccccc4C[C@H]3CO)O[C@@]3(C(=O)N(C)c4ccccc43)[C@@H]2C)cc1` under?
// result HIGH

// query Which bin should I file COc1ccc(C(O)C2C=CC3C(=O)N(c4ccccc4)C(=O)C3N2Nc2ccc(C#N)cc2)cc1OCc1ccccc1 (configuration not stated) under?
// result MEDIUM

// query Which bin should I file C=CCC(OC(C)=O)[C@@H]1[C@@H](N(Cc2ccc(-c3cccc(C(F)(F)F)c3)o2)C(=O)Cc2ccc(F)cc2)c2cc(OCCCO)ccc2N1C(=O)Cc1ccc2ccccc2c1 (some centres not stated) under?
// result MEDIUM

// query Which bin should I file `O=C(NCc1ccccc1)[C@@H]1c2ccccc2C(=O)N(Cc2cc(C(F)(F)F)cc(C(F)(F)F)c2)[C@H]1c1ccc(CO)cc1` under?
// result HIGH

// query Which bin should I file `COCCOC(=O)N1C(=O)[C@@]2(c3cc(C#CCCO)ccc31)[C@H](c1ccc(OCCO)cc1)N1[C@H](c3ccccc3)[C@H](c3ccccc3)OC(=O)[C@H]1[C@@H]2C(=O)N1CCCCCCC1` under?
// result HIGH

// query Which bin should I file CC(C)C(CO)N1C(=O)[C@@H]2C3C(=O)OCCC/C=C\[C@H]3OC23C=CCN(Cc2ccccc2)C(=O)[C@@H]13 (some centres not stated) under?
// result LOW

// query Which bin should I file `COc1ccc(C(=O)Nc2ccc(CN3C(=O)[C@@]4(O[C@@H](CCn5cc(CCO)nn5)[C@H]([Si](C)(C)c5ccc(OC)cc5)[C@H]4C)c4ccccc43)cc2)cc1` under?
// result HIGH

// query Which bin should I file `COC(=O)[C@@]1(Cc2ccc(F)cc2)[C@H]2c3cc(C(=O)N4CCCC4)n(Cc4ccccn4)c3C[C@H]2CN1C(=O)c1ccccc1` under?
// result MEDIUM

// query Which bin should I file CCN(CC)c1ccc(N2CC=CC34O[C@@H]5C=CCCOC(=O)C5[C@H]3C(=O)N(C(C)CO)[C@@H]4C2=O)cc1 (some centres not stated) under?
// result MEDIUM

// query Which bin should I file `C=CCNC(=O)[C@H]1[C@@H]2C(=O)O[C@@H](c3ccccc3)[C@@H](c3ccccc3)N2[C@@H](c2ccc(OCCO)cc2)[C@]12C(=O)Nc1ccc(C#CC3(O)CCCCCC3)cc12` under?
// result HIGH
